Source: patent US20050239784A1

Molecular target: AKT3 (Homo sapiens)
Sequence (Q9Y243 whole entry, species assumed): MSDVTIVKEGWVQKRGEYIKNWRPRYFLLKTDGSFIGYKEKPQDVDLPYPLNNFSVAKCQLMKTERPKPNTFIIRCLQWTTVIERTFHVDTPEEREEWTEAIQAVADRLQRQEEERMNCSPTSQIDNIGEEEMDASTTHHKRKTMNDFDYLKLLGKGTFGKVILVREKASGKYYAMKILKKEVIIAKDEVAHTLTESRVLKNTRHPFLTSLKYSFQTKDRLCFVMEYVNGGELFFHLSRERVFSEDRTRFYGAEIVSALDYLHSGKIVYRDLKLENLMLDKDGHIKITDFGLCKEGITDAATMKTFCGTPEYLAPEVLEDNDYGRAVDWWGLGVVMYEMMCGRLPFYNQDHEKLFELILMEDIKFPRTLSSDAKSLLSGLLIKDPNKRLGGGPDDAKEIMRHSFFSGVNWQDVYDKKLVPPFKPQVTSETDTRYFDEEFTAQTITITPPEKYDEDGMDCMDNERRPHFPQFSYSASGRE
Test: biochemical
Settings: read-out: AKT3 pep. (Ex. C.3): pIC50 values (converted)
Recorded IC50, one value per entry.
# number only, unit nM dropped from output

CC(C)n1nc(-c2ccc(OCCN3CCN(C)CC3)cc2)nc2c(=O)n(C)c(=O)nc1-2 : 198
CC(C)n1nc(-c2ccc(OCCN3CCNCC3)c(Cl)c2)nc2c(=O)n(C)c(=O)nc1-2 : 121
Cn1c(=O)nc2n(C3CCCC3)nc(-c3ccc(CN4CCNCC4)cc3)nc-2c1=O : 335
CC(C)n1nc(-c2ccc(CNC3CCN(S(=O)(=O)N(C)C)CC3)cc2)nc2c(=O)n(C)c(=O)nc1-2 : 170
COc1cc(-c2nc3c(=O)n(C)c(=O)nc-3n(C(C)C)n2)cc(OC)c1OCCN1CCCCC1 [Compound 106] : 117
COc1cc(-c2nc3c(=O)n(C)c(=O)nc-3n(C3CCNCC3)n2)ccc1OCCN1CCCCC1 : 275
CC(C)n1nc(-c2ccc(OCCN3CCCCC3)c(Cl)c2)nc2c(=O)n(C)c(=O)nc1-2 : 239

Now look at this one.
Enquiry: Need IC50 of CC(C)n1nc(-c2ccc(CNC3CCNCC3)cc2)nc2c(=O)n(C)c(=O)nc1-2 , thanks.
Return: 194

* * *

Recorded melting point, one value per entry.
# number only, unit °C dropped from output

A selection of reference data follows.
COc1cc(-c2nc3c(=O)n(C)c(=O)nc-3n(C)n2)ccc1OCCN1CCN(C)CC1 : 239
CCCC(C)n1nc(-c2ccccc2)nc2c(=O)n(C)c(=O)nc1-2 (stereo not shown) : 216
Cn1c(=O)nc2n(C3CCN(C(=O)OC(C)(C)C)CC3)nc(-c3ccccc3)nc-2c1=O : 250
CCOC(=O)C(C)n1nc(-c2ccccc2)nc2c(=O)n(C)c(=O)nc1-2 (stereo not shown) : 215
COc1cc(-c2nc3c(=O)n(C)c(=O)nc-3n(C(C)C)n2)ccc1OCCN1CCCCC1 : 222

Enquiry: Need melting point of COc1cc(-c2nc3c(=O)n(C)c(=O)nc-3n(C(C)C)n2)ccc1OCCN1CCN(C)CC1 , thanks.
Return: 233

Enquiry: Need melting point of CC(C)n1nc(-c2ccc(OCCN3CCOCC3)cc2)nc2c(=O)n(C)c(=O)nc1-2 , thanks.
Return: 232

* * *

Recorded pIC50, one value per entry.
Target: AKT3 (Homo sapiens)
Assay: biochemical
Conditions: AKT3 pep. (Ex. C.3): pIC50 values
Note: pIC50 values are expressed as the negative base-10 logarithm of concentration in M.

Enquiry: Observed pIC50 on AKT3 (Homo sapiens) for COCCNCc1ccc(-c2nc3c(=O)n(C)c(=O)nc-3n(C(C)C)n2)cc1 [Compound 100] , please.
Return: 6.75

Enquiry: Observed pIC50 on AKT3 (Homo sapiens) for CC(C)n1nc(-c2ccc(CN3CCN(S(N)(=O)=O)CC3)cc2)nc2c(=O)n(C)c(=O)nc1-2 [Compound 102] , please.
Return: 6.76

Enquiry: Observed pIC50 on AKT3 (Homo sapiens) for CC(C)n1nc(-c2ccc(OCCN)cc2)nc2c(=O)n(C)c(=O)nc1-2 [Compound 101] , please.
Return: 6.63

Enquiry: Observed pIC50 on AKT3 (Homo sapiens) for CC(C)n1nc(-c2ccc(OS(=O)(=O)N(C)C)cc2)nc2c(=O)n(C)c(=O)nc1-2 [Compound 87] , please.
Return: 6.39

Enquiry: Observed pIC50 on AKT3 (Homo sapiens) for CC(C)n1nc(-c2ccc(OCCCN3CCOCC3)cc2)nc2c(=O)n(C)c(=O)nc1-2 [Compound 84] , please.
Return: 6.55

Enquiry: Observed pIC50 on AKT3 (Homo sapiens) for CC(C)n1nc(-c2ccc(CN(C)CCO)cc2)nc2c(=O)n(C)c(=O)nc1-2 [Compound 111] , please.
Return: 6.79
